Origin of values: ChEMBL document CHEMBL1806351

Test system: BXPC-3
Assay: Antiproliferative activity against human BxPC3 cells assessed as viable cells after 48 hrs by MTT assay
Type: functional, cell-based
Conditions: BXPC-3, 48 h
Measured IC50 of individual entries

Guide cases for IC50, answers given:
Smiles Str	IC50
O=C1N[C@H]2[C@H](O)[C@H](O)[C@@H](O)[C@H](CO)[C@@H]2c2cc3c(c(O)c21)OCO3	220 nM
O=C1N[C@@H]2C(=C[C@H](O)[C@@H](O)[C@H]2O)c2cc3c(c(O)c21)OCO3	50 nM
CC(=O)OC[C@H]1[C@H](O)[C@@H](O)[C@@H](O)[C@@H]2NC(=O)c3c(cc4c(c3O)OCO4)[C@@H]12	70 nM

[Q] Which IC50 reading was recorded for the molecule "O=C1N[C@H]2[C@H](O)[C@H](O)[C@@H](O)[C@H](CO)[C@@H]2c2cc3c(cc21)OCO3" ?
[A] 770 nM

[Q] Likewise for "CC(=O)OC[C@H]1[C@H](O)[C@@H](O)[C@@H](O)[C@@H]2NC(=O)c3cc4c(cc3[C@@H]12)OCO4" ?
[A] 340 nM

====

Test system: NCI-H460
Assay: Antiproliferative activity against human NCI-H460 cells assessed as viable cells after 48 hrs by MTT assay
Format: functional, cell-based
Conditions: NCI-H460, 48 h
Measurement Label: pIC50
Answer as the number alone; pIC50 is minus log10 of concentration in mol/L.

Guide cases for pIC50, answers given:
Compound	Tested System	Measurement Label	Reported Value
O=C1N[C@H]2[C@H](O)[C@H](O)[C@@H](O)[C@H](CO)[C@@H]2c2cc3c(c(O)c21)OCO3	NCI-H460	pIC50	7.05
CC(=O)OC[C@H]1[C@H](O)[C@@H](O)[C@@H](O)[C@@H]2NC(=O)c3cc4c(cc3[C@@H]12)OCO4	NCI-H460	pIC50	6.28

[Q] Which pIC50 reading was recorded for the compound "O=C1N[C@H]2[C@H](O)[C@H](O)[C@@H](O)[C@H](CO)[C@@H]2c2cc3c(cc21)OCO3" ?
[A] 6.40

[Q] Likewise for "CC(=O)OC[C@H]1[C@H](O)[C@@H](O)[C@@H](O)[C@@H]2NC(=O)c3c(cc4c(c3O)OCO4)[C@@H]12" ?
[A] 7.15

[Q] Likewise for O=C1N[C@@H]2C(=C[C@H](O)[C@@H](O)[C@H]2O)c2cc3c(c(O)c21)OCO3 [NARCICLASINE] ?
[A] 7.40

====

Test system: MCF7
Assay: Antiproliferative activity against human MCF7 cells assessed as viable cells after 48 hrs by MTT assay
Type: functional, cell-based
Conditions: MCF7, 48 h
Measured IC50 of individual entries
Reply with just the number (in µM).

Guide cases for IC50, answers given:
Compound	Tested System	IC50 / µM
CC(=O)OC[C@H]1[C@H](O)[C@@H](O)[C@@H](O)[C@@H]2NC(=O)c3c(cc4c(c3O)OCO4)[C@@H]12	MCF7	0.52
O=C1N[C@@H]2C(=C[C@H](O)[C@@H](O)[C@H]2O)c2cc3c(c(O)c21)OCO3 [NARCICLASINE]	MCF7	0.04
O=C1N[C@H]2[C@H](O)[C@H](O)[C@@H](O)[C@H](CO)[C@@H]2c2cc3c(cc21)OCO3	MCF7	0.86
CC(=O)OC[C@H]1[C@H](O)[C@@H](O)[C@@H](O)[C@@H]2NC(=O)c3cc4c(cc3[C@@H]12)OCO4	MCF7	1.81

Now, please, on to the next compound.
[Q] Which IC50 reading was recorded for the compound "O=C1N[C@H]2[C@H](O)[C@H](O)[C@@H](O)[C@H](CO)[C@@H]2c2cc3c(c(O)c21)OCO3" ?
[A] 0.24
